# study system: Serine/threonine-protein kinase PLK4 (Homo sapiens, UniProt O00444); further: in the data inactive means no Kd found up to 30 µM
# Sequence (O00444 whole entry): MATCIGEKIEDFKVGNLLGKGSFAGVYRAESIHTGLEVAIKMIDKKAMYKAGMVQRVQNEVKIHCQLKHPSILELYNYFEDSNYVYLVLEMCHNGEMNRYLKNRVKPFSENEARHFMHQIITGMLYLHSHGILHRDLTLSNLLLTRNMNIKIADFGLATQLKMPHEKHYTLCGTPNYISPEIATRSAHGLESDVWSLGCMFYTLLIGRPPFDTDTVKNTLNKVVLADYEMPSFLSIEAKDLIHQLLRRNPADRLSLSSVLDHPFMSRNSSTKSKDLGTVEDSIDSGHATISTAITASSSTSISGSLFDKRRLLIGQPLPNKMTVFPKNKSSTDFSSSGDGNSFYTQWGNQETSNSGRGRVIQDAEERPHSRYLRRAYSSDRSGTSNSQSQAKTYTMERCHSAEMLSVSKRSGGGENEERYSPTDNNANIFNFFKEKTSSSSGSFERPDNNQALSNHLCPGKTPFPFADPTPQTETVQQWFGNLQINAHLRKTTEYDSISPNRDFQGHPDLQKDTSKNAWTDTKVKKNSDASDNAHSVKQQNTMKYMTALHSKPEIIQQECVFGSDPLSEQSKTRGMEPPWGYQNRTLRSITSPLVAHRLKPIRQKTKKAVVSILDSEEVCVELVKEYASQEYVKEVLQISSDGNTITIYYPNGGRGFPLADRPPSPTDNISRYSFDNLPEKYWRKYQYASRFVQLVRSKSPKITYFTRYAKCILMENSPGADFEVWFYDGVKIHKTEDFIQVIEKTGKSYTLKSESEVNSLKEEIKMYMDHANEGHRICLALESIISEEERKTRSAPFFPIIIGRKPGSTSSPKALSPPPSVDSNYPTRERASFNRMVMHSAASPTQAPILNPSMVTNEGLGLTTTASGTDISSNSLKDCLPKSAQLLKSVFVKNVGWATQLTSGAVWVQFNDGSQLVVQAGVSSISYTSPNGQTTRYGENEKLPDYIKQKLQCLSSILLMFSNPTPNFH
Active and inactive are the calls of the source.
Outcome codes: 1 (active), -1 (inactive)

1) Cc1ccc(-n2nc(C(C)(C)C)cc2NC(=O)NCc2cc(F)ccc2Oc2ccc3c(cnn3CCO)c2)cc1 [PEXMETINIB] : -1
2) Cc1cc(-c2cc(O)ccc2Cl)cc2nnc(Nc3ccc(OCCN4CCCC4)cc3)nc12 : -1
3) C[C@@H](Nc1cc(F)cc(F)c1)c1cc(C(=O)N(C)C)cc2c(=O)cc(N3CCOCC3)oc12 [AZD-8186] : -1
4) CO[C@H]1C[C@@H]2CC[C@@H](C)[C@@](O)(O2)C(=O)C(=O)N2CCCC[C@H]2C(=O)O[C@H]([C@H](C)C[C@@H]2CC[C@@H](OCCO)[C@H](OC)C2)CC(=O)[C@H](C)/C=C(\C)[C@@H](O)[C@@H](OC)C(=O)[C@H](C)C[C@H](C)/C=C/C=C/C=C/1C [EVEROLIMUS] : -1
5) O=C(c1ccc(F)c(F)c1Nc1ccc(I)cc1F)N1CC(O)([C@@H]2CCCCN2)C1 [COBIMETINIB] : -1
6) CCS(=O)(=O)N1CC(CC#N)(n2cc(-c3ncnc4[nH]ccc34)cn2)C1 [BARICITINIB] : -1
7) C=CC(=O)N1CCC(Oc2cc3c(Nc4ccc(Cl)c(Cl)c4F)ncnc3cc2OC)CC1 [POZIOTINIB] : -1
8) COc1cc(N2CCC(N3CCN(C)CC3)CC2)ccc1Nc1ncnc(Nc2ccccc2S(=O)(=O)C(C)C)n1 [ASP-3026] : 1
9) Cn1cc(-c2ccc3nnc(C(F)(F)c4ccc5ncccc5c4)n3n2)cn1 [JNJ-38877605] : -1
10) Cc1ccc(NC(=O)c2ccc(CN3CC[C@H](N(C)C)C3)c(C(F)(F)F)c2)cc1Nc1nccc(-c2cncnc2)n1 [BAFETINIB] : -1
11) C[C@@H]1CN(Cc2ccc(F)cc2)[C@@H](C)CN1C(=O)c1cc2c(C(=O)C(=O)N(C)C)cn(C)c2cc1Cl [TALMAPIMOD] : -1
12) Cn1cc(-c2ccc(F)c(C(F)(F)F)c2)nc1C1CCN(c2ncnc3[nH]ncc23)CC1 [LY-2584702] : -1
13) O=c1sn(-c2cccc3ccccc23)c(=O)n1Cc1ccccc1 [TIDEGLUSIB] : -1
14) COc1cc(CCc2cc(NC(=O)c3ccc(N4C[C@@H](C)N[C@@H](C)C4)cc3)n[nH]2)cc(OC)c1 [AZD-4547] : -1
15) Cc1c(F)cc(C(=O)NC2CC2)cc1-c1ccc(C(=O)NCC(C)(C)C)cn1 [LOSMAPIMOD] : -1
16) CCc1cnn2c(NCc3ccc[n+]([O-])c3)cc(N3CCCC[C@H]3CCO)nc12 [DINACICLIB] : -1
17) COCCNCc1ccc(-c2cc3nccc(Oc4ccc(NC(=S)NC(=O)Cc5ccc(F)cc5)cc4F)c3s2)nc1 [GLESATINIB] : 1
